All values here come from patent US20050032873A1.

Target: 5-HT1A receptor (Homo sapiens, UniProt P08908)
Sequence (P08908 whole entry): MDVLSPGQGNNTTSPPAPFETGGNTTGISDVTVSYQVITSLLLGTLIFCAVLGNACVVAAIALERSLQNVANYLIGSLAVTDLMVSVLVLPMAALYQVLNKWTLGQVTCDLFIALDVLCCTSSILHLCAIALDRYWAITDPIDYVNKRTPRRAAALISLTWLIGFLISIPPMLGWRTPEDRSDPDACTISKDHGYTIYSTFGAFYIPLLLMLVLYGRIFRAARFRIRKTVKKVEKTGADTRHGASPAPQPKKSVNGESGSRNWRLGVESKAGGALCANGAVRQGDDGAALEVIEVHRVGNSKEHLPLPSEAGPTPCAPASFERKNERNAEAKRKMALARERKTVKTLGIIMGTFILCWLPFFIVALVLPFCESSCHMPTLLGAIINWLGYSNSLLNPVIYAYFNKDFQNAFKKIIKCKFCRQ
Experiment: 5-HT1A receptor affinity: displacement of [3H] 8-OH-DPAT
Assay type: binding
Design: expressed in transfected cells
Conditions: displacement of [3H] 8-OH-DPAT; CHO cells stably transfected with human 5-HT1A receptors; read-out: 5-HT1A Receptor Affinity Ki
Exercise: state measured log10(Ki) for each of the molecules provided.
Please interpret these as log10 of Ki where Ki is in nM.

>  <molecule>
CCCN(CCCc1c[nH]c2ccc(F)cc12)C1CCc2c(F)ccc(OC)c2C1 (stereo not shown) [Compound 51]

>  <property>
log10(Ki)

>  <result_number>
1.06

$$$$
>  <molecule>
COc1cccc2c(CCN(CC3CC3)C3COc4c(F)ccc(C(N)=O)c4C3)coc12 (stereo not shown)

>  <property>
log10(Ki)

>  <result_number>
1.53

$$$$
>  <molecule>
NC(=O)c1ccc(F)c2c1CC(N(CCCc1c[nH]c3c(F)cc(F)cc13)C1CCC1)CO2 (single isomer, unassigned; (+)) [Compound 9b]

>  <property>
log10(Ki)

>  <result_number>
1.84

$$$$
>  <molecule>
CCN(CCCCn1ccc2c(F)cccc21)C1COc2c(F)ccc(C(N)=O)c2C1 (stereo not shown)

>  <property>
log10(Ki)

>  <result_number>
1.63

$$$$
>  <molecule>
CNC(=O)c1ccc(F)c2c1CC(N(CCCc1c[nH]c3ccc(F)cc13)C1CCC1)CO2 (stereo not shown)

>  <property>
log10(Ki)

>  <result_number>
0.73

$$$$
>  <molecule>
COc1cccc2c1CC(N(CCCc1c[nH]c3ccc(F)cc13)C1CC1)CO2 (stereo not shown)

>  <property>
log10(Ki)

>  <result_number>
1.76

$$$$
>  <molecule>
O=C(NCC1CC1)c1ccc(F)c2c1CC(N(CCCc1c[nH]c3ccc(F)cc13)C1CCC1)CO2 (stereo not shown)

>  <property>
log10(Ki)

>  <result_number>
2.21

$$$$
>  <molecule>
CCN(CCCc1c[nH]c2c(OC)cccc12)C1COc2c(F)ccc(C(N)=O)c2C1 (stereo not shown)

>  <property>
log10(Ki)

>  <result_number>
-0.30

$$$$
>  <molecule>
COc1cccc2c1CC(N(CCCc1cn(C)c3ccc(F)cc13)CC1CC1)CO2 (stereo not shown)

>  <property>
log10(Ki)

>  <result_number>
-0.82

$$$$
>  <molecule>
COC(=O)c1ccc(F)c2c1CC(NCCCc1c[nH]c3ccc(F)cc13)CO2 (stereo not shown)

>  <property>
log10(Ki)

>  <result_number>
0.80

$$$$

Report log10(Ki) for each item below.
1. CCCN(CCc1c[nH]c2ccc(F)cc12)C1COc2c(F)ccc(C(N)=O)c2C1 (stereo not shown)
2. COc1cccc2c(CCCN(C3CCC3)C3COc4c(F)ccc(C(N)=O)c4C3)c[nH]c12 (stereo not shown)

[1.26, 0.51]

Report log10(Ki) for each item below.
1. NC(=O)c1ccc(F)c2c1CC(NCCCc1c[nH]c3c(Cl)cccc13)CO2 (stereo not shown)
2. CCCN(CCCc1c[nH]c2ccc(F)cc12)C1CCc2cccc(OC)c2C1 (stereo not shown)
3. CCCN(C1COc2cccc(OC)c2C1)[C@H]1CC[C@H](c2c[nH]c3ccc(F)cc32)CC1 (relative stereo)
4. CCCN(C(C)CCc1c[nH]c2ccc(F)cc12)C1COc2c(F)ccc(C(N)=O)c2C1 (single isomer, unassigned) [Compound 12a]

[1.44, 0.61, 2.26, 0.72]
